// data source = patent EP4755449A2

Entries and their pKd values follow.
target.under.test: T1, human latent myostatin (human, UniProt O14793 25-266; O14793 267-375)
T1 construct: non-covalent complex of two propeptides and the mature homodimer; also called human myostatin latent form
T1 sequence 1: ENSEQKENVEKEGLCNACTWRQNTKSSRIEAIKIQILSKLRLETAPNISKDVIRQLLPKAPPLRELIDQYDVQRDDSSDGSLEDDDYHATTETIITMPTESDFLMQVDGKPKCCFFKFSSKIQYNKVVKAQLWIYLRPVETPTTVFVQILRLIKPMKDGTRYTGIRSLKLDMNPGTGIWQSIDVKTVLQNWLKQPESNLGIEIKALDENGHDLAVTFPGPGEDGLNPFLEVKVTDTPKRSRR
T1 sequence 2: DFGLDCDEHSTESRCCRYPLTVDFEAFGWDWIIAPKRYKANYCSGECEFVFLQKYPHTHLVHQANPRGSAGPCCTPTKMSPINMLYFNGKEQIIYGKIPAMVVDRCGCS
protocol: SPR avidity condition pH5.8 37C; pH 5.8
Note: pKd values are expressed as the negative base-10 logarithm of concentration in M.

INSERT INTO measurements (binder, observed) VALUES
  ('MS_M103205H000-SG1/M103202L000-SK1 (antibody, human IgG1, kappa, V domains shown, humanized; also called MS1032LO00-SG1; Ab001) VH: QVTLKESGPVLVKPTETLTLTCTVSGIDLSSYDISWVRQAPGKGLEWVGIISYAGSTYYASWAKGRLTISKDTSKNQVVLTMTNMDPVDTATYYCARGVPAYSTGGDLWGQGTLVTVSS VL: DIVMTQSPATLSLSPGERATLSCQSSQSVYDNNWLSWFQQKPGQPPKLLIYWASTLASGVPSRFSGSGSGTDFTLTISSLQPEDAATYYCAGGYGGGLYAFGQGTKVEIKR', 10.10);

So for MS_M103205H707-SG1/M103202L802-SK1 (antibody, human IgG1, kappa, V domains shown, also called MS1032LO04-SG1) VH: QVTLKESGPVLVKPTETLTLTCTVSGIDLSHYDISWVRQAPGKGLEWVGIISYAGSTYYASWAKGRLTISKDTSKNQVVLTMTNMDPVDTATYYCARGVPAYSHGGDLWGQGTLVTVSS VL: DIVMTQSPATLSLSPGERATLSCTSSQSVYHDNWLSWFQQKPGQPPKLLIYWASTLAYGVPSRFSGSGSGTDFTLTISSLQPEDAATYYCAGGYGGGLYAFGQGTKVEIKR , the logged pKd turned out to be 8.04

So for MS_M103205H714-SG1/M103202L861-SK1 (antibody, human IgG1, kappa, V domains shown, also called MS1032LO01-SG1) VH: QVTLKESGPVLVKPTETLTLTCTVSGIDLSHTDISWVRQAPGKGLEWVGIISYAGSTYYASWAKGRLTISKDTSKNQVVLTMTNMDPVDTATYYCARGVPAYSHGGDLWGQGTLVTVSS VL: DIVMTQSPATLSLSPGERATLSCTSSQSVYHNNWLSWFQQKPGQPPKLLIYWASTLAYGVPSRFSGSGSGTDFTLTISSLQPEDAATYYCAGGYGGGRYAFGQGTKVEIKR , the logged pKd turned out to be 7.71

So for MS_M103205H781-SG1/M103202L719-SK1 (antibody, human IgG1, kappa, V domains shown, also called MS1032LO02-SG1) VH: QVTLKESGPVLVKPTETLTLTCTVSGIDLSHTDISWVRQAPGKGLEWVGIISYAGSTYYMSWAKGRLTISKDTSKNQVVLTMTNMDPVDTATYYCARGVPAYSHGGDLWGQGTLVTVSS VL: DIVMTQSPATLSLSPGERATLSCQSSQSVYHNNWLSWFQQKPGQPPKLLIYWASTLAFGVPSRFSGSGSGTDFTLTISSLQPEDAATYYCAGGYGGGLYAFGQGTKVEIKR , the logged pKd turned out to be 7.61

So for MS_M103205H781-SG1/M103202L813-SK1 (antibody, human IgG1, kappa, V domains shown, also called MS1032LO03-SG1) VH: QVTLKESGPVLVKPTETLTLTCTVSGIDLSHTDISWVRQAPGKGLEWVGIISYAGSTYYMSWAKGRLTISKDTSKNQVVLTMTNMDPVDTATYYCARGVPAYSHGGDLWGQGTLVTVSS VL: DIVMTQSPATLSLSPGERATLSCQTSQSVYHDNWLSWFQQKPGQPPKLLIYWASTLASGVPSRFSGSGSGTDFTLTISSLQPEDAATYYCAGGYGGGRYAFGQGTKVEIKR , the logged pKd turned out to be 8.02
